# experimental-system: UniProtKB P10827
# Sequence (P10827 whole entry): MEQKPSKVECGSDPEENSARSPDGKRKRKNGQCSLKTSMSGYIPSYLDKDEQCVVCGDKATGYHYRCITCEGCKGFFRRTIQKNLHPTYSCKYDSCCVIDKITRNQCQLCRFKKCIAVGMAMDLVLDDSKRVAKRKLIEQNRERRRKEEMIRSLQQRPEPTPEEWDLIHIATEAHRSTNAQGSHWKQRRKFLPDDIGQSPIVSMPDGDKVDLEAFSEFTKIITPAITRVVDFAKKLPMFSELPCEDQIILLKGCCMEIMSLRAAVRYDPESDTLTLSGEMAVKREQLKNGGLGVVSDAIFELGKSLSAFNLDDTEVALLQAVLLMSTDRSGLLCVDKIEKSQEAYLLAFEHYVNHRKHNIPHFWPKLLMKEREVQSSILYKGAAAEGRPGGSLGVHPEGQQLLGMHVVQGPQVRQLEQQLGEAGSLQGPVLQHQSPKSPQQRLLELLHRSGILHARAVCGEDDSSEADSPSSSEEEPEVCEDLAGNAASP
# run-description: Agonist activity at TRalpha (unknown origin) at 1 uM by Lanthascreen TR-FRET assay relative to control
# test-context: read-out: Activity
test-readout: activity at 1 µM (%)
All answers are understood in %, so give the number only.

Data request: Which measured activity at 1 µM belongs to Cc1cc(OCC(=O)O)cc(C)c1Cc1ccc(N)c(C(C)C)c1 , tested on UniProtKB P10827?
Data returned: 30

----------
# run-description: Cytotoxicity against human U2OS cells assessed as cell growth inhibition at 10 uM after 24 hrs relative to control
# Type: cell-based
test-readout: inhibition at 24 h, 10 µM

structure_notation=CC(=O)Nc1ccc(Cc2ccc(OCC(=O)O)cc2)cc1C(C)C recorded_result="< 50%"

Data request: Report inhibition at 24 h, 10 µM for CCNc1ccc(Cc2c(C)cc(OCC(=O)O)cc2C)cc1C(C)C please.
Data returned: < 50%

Data request: Report inhibition at 24 h, 10 µM for Cc1cc(OCC(=O)O)cc(C)c1Cc1ccc(N)c(C(C)C)c1 please.
Data returned: < 50%
